- measurement.target: Aspartate--tRNA(Asp/Asn) ligase (Mycobacterium tuberculosis (strain ATCC 25618 / H37Rv)); also: in the data most compounds retested in dose-response had high values
- Sequence (whole entry): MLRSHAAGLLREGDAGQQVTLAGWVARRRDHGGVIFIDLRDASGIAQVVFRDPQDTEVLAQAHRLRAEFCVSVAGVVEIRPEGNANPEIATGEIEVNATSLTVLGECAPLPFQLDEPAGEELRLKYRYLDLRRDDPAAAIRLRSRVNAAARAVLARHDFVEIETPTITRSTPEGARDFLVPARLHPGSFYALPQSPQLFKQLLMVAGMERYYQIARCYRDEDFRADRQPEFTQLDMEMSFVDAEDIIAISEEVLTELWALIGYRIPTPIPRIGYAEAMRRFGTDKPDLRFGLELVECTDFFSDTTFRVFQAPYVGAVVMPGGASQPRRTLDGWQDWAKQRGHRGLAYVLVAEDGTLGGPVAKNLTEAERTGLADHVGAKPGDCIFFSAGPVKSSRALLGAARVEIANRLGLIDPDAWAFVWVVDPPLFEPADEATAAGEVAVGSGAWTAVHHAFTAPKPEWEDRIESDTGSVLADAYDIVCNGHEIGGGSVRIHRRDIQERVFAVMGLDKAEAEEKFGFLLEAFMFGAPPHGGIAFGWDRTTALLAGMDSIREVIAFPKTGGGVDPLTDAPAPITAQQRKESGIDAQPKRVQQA
- measurement.protocol: Assay for Asp RNA synthetase-1 from Mycobacterium tuberculosis
- Type: functional
- Set-up: scale not given: direction of the effect not stated beside the values
- condition.description: 30 µM
metric.name: Percent Effect
Could you kindly put the unit after your number?

Below: 5 compounds and their reported Percent Effect.
CCCN1CCCn2nc(CNC(=O)CCc3scnc3C)cc2C1; -0.334%
CCCn1nc(C2CCNCC2)n(Cc2ccccc2)c1=O; -5.32%
CS(=O)(=O)c1ccc(OCCNCc2cccc(F)c2)cc1; -5.13%
CCc1ncc2c(n1)CN(Cc1nc(-c3ccccn3)no1)CC2; 0.141%
CC(C)CN1CCN(C)C2(CCN(Cc3ccsc3)CC2)C1=O; 1.25%

Briefly, Percent Effect measured for Cc1ccoc1-c1nnc(CN2CCCC(Cn3cncn3)C2)o1 (centres undefined) : 1.01%

Briefly, Percent Effect measured for CC(C)c1nc(C2CCCN2Cc2ccccc2C#N)no1 (centres undefined) : -6.4%

Briefly, Percent Effect measured for COCCN1CCN(C(=O)C2CC=CC2)Cc2cccnc21 : -1.63%

Briefly, Percent Effect measured for Cc1cnc2n1CCN(C)C21CCN(C(=O)CC(C)C)CC1 : -4.25%

====

Items are presented alongside their recorded Percent Effect.
- measurement.target: Aspartate--tRNA(Asp/Asn) ligase (Mycobacterium tuberculosis (strain ATCC 25618 / H37Rv)) (UniProt P9WFW3); also: in the data most compounds retested in dose-response had high values
- measurement.protocol: Assay for Asp RNA synthetase-1 from Mycobacterium tuberculosis
- Assay type: functional
- Parameters: scale not given: direction of the effect not stated beside the values
- condition.description: 30 µM
Respond with the bare value in %.

Below: 8 molecules and their reported Percent Effect.
Cc1nc(C)n(CC2CCCN2Cc2cscn2)n1 (configuration not stated); -5.82
Cc1nn(C)c(C)c1NC(=O)CN1CCc2c(nc(C3CC3)n2C)C1; -0.703
CC(C)(C)c1ccc(C2(C(=O)NCCCS(C)(=O)=O)CC2)cc1; 8.98
CC(C)CN(C)c1ccc(C(=O)N2CCCC2c2cnn(C)c2)cn1 (configuration not stated); -2.28
CCOc1ccc(-n2nnc(C(=O)O)c2-c2ccccn2)cc1; 12
COC(=O)C(NC(=O)COC1CCCC1)c1cc(F)ccc1F (configuration not stated); -3.52
O=C(CN1CCc2ccccc21)Nc1ccc(OC(F)F)cc1; 0.418
Cc1nn(C)c(Cl)c1C1CCCN1C(=O)c1ccc2c(c1)OCO2 (configuration not stated); -0.434

Briefly, Percent Effect measured for CCc1cc(NCCNc2cccnc2)n2nccc2n1 : 0.0112

Briefly, Percent Effect measured for Cc1cc(-c2cnc(N3CCN(C)CC3)nc2-c2ccc(C)s2)on1 : -3.23

Briefly, Percent Effect measured for Cn1cccc1C(=O)N1CCc2ncnc(N3CCCC3)c2CC1 : -0.927

Briefly, Percent Effect measured for CCn1cc(NC(=O)NCc2ccc3c(c2)OCCO3)cn1 : 1.48

====

Items are presented alongside their recorded Percent Effect.
- measurement.target: Arginase-2, mitochondrial (Homo sapiens)
- Sequence (whole entry): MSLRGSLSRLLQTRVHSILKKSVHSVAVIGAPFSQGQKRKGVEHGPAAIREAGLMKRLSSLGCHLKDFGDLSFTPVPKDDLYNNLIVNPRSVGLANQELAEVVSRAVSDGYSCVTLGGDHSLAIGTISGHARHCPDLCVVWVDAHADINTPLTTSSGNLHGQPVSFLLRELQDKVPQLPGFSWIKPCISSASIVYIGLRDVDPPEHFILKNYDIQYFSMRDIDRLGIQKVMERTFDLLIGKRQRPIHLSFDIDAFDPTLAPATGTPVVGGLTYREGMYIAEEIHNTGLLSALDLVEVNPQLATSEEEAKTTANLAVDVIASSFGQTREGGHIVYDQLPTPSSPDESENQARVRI
- measurement.protocol: in vitro enzyme assay to detect the production of urea directly proportional to the activity of Arginase II; also: in the data most compounds retested in dose-response had high values
- Assay type: functional
- Design: scale not given: direction of the effect not stated beside the values
- condition.description: 33.3 µM
Respond with the bare value in %.

Kindly note: Arginase-2, mitochondrial (Homo sapiens), COCC(=O)N1C[C@@H]2OCCN(Cc3c(C)noc3C)[C@@H]2C1 , Percent Effect value reported: 17

Kindly note: Arginase-2, mitochondrial (Homo sapiens), Cc1cccc(CN2CC[C@@H]3[C@@H]2CCN3C(=O)c2cnoc2C)n1 , Percent Effect value reported: 34.2

Kindly note: Arginase-2, mitochondrial (Homo sapiens), O=C(C1CCOC1)N1C[C@H]2CN(Cc3ccccn3)C[C@H]2C1 (stereo partly specified) , Percent Effect value reported: 6.05

Kindly note: Arginase-2, mitochondrial (Homo sapiens), CN1CCC2(COCc3cnc(N4CCOCC4)nc32)C1 (stereo unspecified) , Percent Effect value reported: -0.528

Kindly note: Arginase-2, mitochondrial (Homo sapiens), O=C1CC2(CCN(CC3CC3)C2)CN1c1cccnc1 (stereo unspecified) , Percent Effect value reported: 7.2

Kindly note: Arginase-2, mitochondrial (Homo sapiens), CN1CCCC(Cc2cncc(Br)c2)CC1 (stereo unspecified) , Percent Effect value reported: 0.232

====

- measurement.target: Shiga toxin 2 (Escherichia coli O157:H7) (UniProt P09385+P09386)
- measurement.protocol: E. coli 0.157:H7 Shiga Toxin SOP - stx2 screening assay
- Type: functional
- Design: scale not given: direction of the effect not stated beside the values
- condition.description: 30 µM
metric.name: Percent Effect (%)
Respond with the bare value in %.

Below: 4 molecules and their reported Percent Effect.
CCn1nc(C)cc1C(=O)Nc1cc(F)ccc1OCC1CCCO1 (centres undefined); 34.1
CNC(=O)c1cnc(/C=C/c2cc(OC)c(OC)c(OC)c2)s1; -44.8
Cc1ccc(-c2nc(CN3CCCC3Cn3cc(C)cn3)no2)cc1 (centres undefined); -24.5
CN(C)CC1CN(Cc2ccc3c(c2)OCO3)Cc2nccn2C1 (centres undefined); 4.74

Briefly, Percent Effect measured for COCCO[C@H]1CCN(C(=O)c2cc(C)on2)[C@H]1Cc1ccccc1 : -1.24

Briefly, Percent Effect measured for CCc1ccc(C(=O)N2CCN(CC(C)O)CC2)o1 (centres undefined) : 5.26

Briefly, Percent Effect measured for CN(Cc1cnn(C)c1)C(=O)c1ccc(=O)n(C)n1 : -8.81

Briefly, Percent Effect measured for Cn1cccc1-c1cc(C(=O)N2CC(c3cccnc3)C2)[nH]n1 : -50.6

====

Items are presented alongside their recorded Percent Effect.
- measurement.target: Aspartate--tRNA(Asp/Asn) ligase (Mycobacterium tuberculosis (strain ATCC 25618 / H37Rv)) (UniProt P9WFW3); also: in the data most compounds retested in dose-response had high values
- measurement.protocol: Assay for Asp RNA synthetase-1 from Mycobacterium tuberculosis
- Type: functional
- Design: scale not given: direction of the effect not stated beside the values
- condition.description: 30 µM
Respond with the bare value in %.

Below: 3 compounds and their reported Percent Effect.
CN(Cc1ccsc1)C(=O)Nc1ccc(S(C)(=O)=O)nc1; -0.6
c1ccc(-c2nc(CN3CCOC(Cn4cccn4)C3)no2)cc1 (centres undefined); -1.51
CC(C)c1nnc2n1CCN(C(=O)c1ccc(OCC(N)=O)cc1)C2; -5.82

Briefly, Percent Effect measured for Cc1cnn(CC2CCCCN2C(=O)c2cc(Cl)c[nH]2)c1 (centres undefined) : 1.83

Briefly, Percent Effect measured for Cn1cc(CN2CCC(F)(F)C3(CCN(c4cnccn4)C3)C2)cn1 (centres undefined) : -3.65

====

Items are presented alongside their recorded Percent Effect.
- measurement.target: Aspartate--tRNA(Asp/Asn) ligase (Mycobacterium tuberculosis (strain ATCC 25618 / H37Rv)) (UniProt P9WFW3); also: in the data most compounds retested in dose-response had high values
- measurement.protocol: Assay for Asp RNA synthetase-1 from Mycobacterium tuberculosis
- Type: functional
- Set-up: scale not given: direction of the effect not stated beside the values
- condition.description: 30 µM
Respond with the bare value in %.

COc1ccc(C(=O)C2CCCN(Cc3ccc(C)o3)C2)c(OC)c1 (stereo unspecified); -4.91
CC(C)n1ccc(-c2cc(C(=O)N3CCCC3)c3ccccn23)n1; 2.64
Cn1cc(CN2CCC3(CCCN3S(C)(=O)=O)CC2)cn1; 5.38

Briefly, Percent Effect measured for Cc1occc1C(=O)Nc1ccnc(OC2CCOC2)c1 (stereo unspecified) : -6.74
